For HCT15, measured GI50 is reported for the entries below.
Express it in µM; write the number only.

Bench note: what GI50 did N.N.[Cl][Pt][Cl] [Cisplatin, cisplatin] show?
57.3

`O=C1[O][Pt]2([NH][C@@H]3CCCC[C@H]3[NH]2)[O]C1=O` , same question.
6

Item: CCC1(CC)C(=O)NC(=O)[N]([Pd-2]23[n+]4ccccc4C[NH+]2Cc2cccc[n+]23)C1=O.O.[Cl-] [[Pd(bpma)(barb)]Cl•H2O, [Pd(bpma)(barb)]Cl·H2O]
6.8

###

Quick list: TGI (total growth inhibition) per entry.
- Tested on: HT29
- Type: cell-based
- TEST CONDITIONS: 48 hour incubation, unit not given (tested from 100 μM)
Output: the number by itself.

CCC1(CC)C(=O)NC(=O)[N]([Pd-2]23[n+]4ccccc4C[NH+]2Cc2cccc[n+]23)C1=O.O.[Cl-] [[Pd(bpma)(barb)]Cl•H2O, [Pd(bpma)(barb)]Cl·H2O]: 6.6
N.N.[Cl][Pt][Cl] [Cisplatin, cisplatin]: 92.0

Next, consider the following compound.
// lookup TGI (total growth inhibition) for `O=C1[O][Pt]2([NH][C@@H]3CCCC[C@H]3[NH]2)[O]C1=O`
56.5
